Taken from patent US20060199978A1.

# assayed.system: human D2 membrane (Homo sapiens)
# Sequence (P14416 whole entry): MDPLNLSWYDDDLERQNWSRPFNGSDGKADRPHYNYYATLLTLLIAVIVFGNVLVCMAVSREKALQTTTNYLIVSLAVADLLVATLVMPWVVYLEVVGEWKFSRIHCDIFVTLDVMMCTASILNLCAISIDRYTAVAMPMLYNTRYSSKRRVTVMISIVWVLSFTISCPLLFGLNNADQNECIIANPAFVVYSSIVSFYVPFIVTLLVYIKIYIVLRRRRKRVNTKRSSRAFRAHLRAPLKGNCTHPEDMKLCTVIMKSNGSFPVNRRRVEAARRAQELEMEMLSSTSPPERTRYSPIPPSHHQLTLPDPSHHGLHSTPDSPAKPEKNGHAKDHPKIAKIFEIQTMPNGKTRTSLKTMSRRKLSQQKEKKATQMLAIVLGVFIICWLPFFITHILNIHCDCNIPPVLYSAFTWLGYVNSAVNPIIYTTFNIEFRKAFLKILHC
# assay.info: D2 binding assay (3H-spiperone)
# measurement.setup: 3H-spiperone 0.5 nM
// values below are reported Ki

{"molecule": "OC1CCc2ccc(/N=C/N3CCc4ccccc4C3)cc21 (centres unmarked) [Compound 34]", "assayed.system": "human D2 membrane (Homo sapiens)", "Ki": "> 300 µM"}
{"molecule": "COc1cc2c(cc1OC)CN(/C=N/c1ccc3c(c1)C(O)CC3)CC2 (centres unmarked) [Compound 32]", "assayed.system": "human D2 membrane (Homo sapiens)", "Ki": "> 300 µM"}

* * *

# assayed.system: human 5-HT7 receptors (Homo sapiens)
# Construct: purchased Euroscreen
# Sequence (P34969 whole entry): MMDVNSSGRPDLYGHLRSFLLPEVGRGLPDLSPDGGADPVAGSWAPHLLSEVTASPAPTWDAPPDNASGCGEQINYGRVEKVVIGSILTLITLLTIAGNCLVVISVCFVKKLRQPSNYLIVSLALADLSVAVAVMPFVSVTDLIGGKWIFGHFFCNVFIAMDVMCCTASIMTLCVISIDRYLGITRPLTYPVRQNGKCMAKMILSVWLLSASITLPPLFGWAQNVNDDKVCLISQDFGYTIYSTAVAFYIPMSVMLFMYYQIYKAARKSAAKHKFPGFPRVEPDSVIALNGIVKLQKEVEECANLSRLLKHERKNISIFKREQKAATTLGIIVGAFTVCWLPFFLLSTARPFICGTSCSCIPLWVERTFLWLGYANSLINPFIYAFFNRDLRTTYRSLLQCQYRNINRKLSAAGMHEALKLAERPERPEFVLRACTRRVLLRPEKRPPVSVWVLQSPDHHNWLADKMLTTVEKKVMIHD
# assay.info: 5-HT7 binding assay (3H-5CT)
# measurement.setup: human 5-HT7 membrane, 3H-5CT 0.5 nM

{"compound": "COc1cc2c(cc1OC)CN(/C=N/c1ccc3c(c1)C(O)CC3)CC2 (stereo not shown)", "Ki, nM": 400}

* * *

Entries with their measured Ki, system human M4 muscarinic receptors (Homo sapiens, UniProt P08173):

{"molecule": "OC1CCc2ccc(/N=C/N3CCc4ccccc4C3)cc21 (centres unmarked)", "Ki (nM)": 2800}
{"molecule": "COc1cc2c(cc1OC)CN(/C=N/c1ccc3c(c1)C(O)CC3)CC2 (centres unmarked)", "Ki (nM)": 320}
